system.name: human adenosine A2b receptor (Homo sapiens)
Sequence (P29275 1-332): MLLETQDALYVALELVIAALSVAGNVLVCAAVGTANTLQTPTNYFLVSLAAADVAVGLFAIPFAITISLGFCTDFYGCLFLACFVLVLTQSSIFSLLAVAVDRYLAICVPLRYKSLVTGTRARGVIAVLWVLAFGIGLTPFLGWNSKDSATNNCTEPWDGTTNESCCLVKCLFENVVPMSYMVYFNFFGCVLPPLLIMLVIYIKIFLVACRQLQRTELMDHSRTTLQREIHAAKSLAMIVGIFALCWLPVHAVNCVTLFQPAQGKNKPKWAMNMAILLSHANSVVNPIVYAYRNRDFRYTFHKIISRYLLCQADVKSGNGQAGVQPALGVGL
test.method.notes: Adenosine receptor radioligand binding assay, A2b receptor ([3H]-CPX, HEK293 membranes)
condition.details: membrane preparations of HEK293 cells, radioligand [3H]-CPX
Protocol: The binding properties of the test compounds on adenosine receptors were determined in binding studies with radioligands. […] The displacement of the particular radioligand by the test compound was expressed as percentage inhibition of the specific binding of the controls. […] The inhibition constant (Ki) was calculated by the Cheng-Prusoff equation: (L=concentration of the radioligand in the assay; KD=receptor affinity of the radioligand for the receptor, determined with a Scatchard plot). […]
pKi: −log10 of the molar value.
Examples of molecules with documented pKi follow.

# molecule, pKi
records = [
    ("COCCn1c(=O)n([C@H]2C[C@@H]2C)c(=O)c2c(C)c(CN3CCNC3=O)sc21 [Example 315]", 8.43),
    ("COCCn1c(=O)n(C2(C)CC2)c(=O)c2c(C)c(CN3CCNC3=O)sc21 [Example 70]", 8.24),
    ("Cc1c(Cn2nc[nH]c2=O)sc2c1c(=O)n(C1CC1)c(=O)n2CCC(F)(F)F [Example 15]", 8.44),
    ("Cc1c(Cn2nc[nH]c2=O)sc2c1c(=O)n(C1CC1)c(=O)n2CCOC(F)(F)F [Example 36]", 8.59),
    ("COCCn1c(=O)n(C2CC2C)c(=O)c2c(C)c(CN3CCNC3=O)sc21 (single isomer, unassigned) [Example 96]", 8.43),
]

###

system.name: UniProtKB P29275
Sequence (P29275 1-332): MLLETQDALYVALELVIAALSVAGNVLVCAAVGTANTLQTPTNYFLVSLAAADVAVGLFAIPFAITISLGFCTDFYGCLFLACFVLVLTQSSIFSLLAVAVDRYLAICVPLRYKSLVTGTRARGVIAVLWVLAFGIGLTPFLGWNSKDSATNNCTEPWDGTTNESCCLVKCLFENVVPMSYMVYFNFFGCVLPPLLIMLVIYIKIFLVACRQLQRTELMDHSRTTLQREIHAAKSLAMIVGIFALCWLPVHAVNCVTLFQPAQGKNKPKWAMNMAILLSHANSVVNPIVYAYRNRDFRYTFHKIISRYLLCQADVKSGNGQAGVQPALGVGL
test.method.notes: Cellular in vitro reporter gene test for A2b receptor activity (antagonism of NECA)
condition.details: recombinant CHO-K1 cells, CRE-luciferase reporter, co-incubation with EC50 concentration of NECA, 3 hours
pIC50: −log10 of the molar value.
// pIC50 lookup, one value per entry

# compound, pIC50
rows = [
    ("Cc1c(Cn2nc[nH]c2=O)sc2c1c(=O)n([C@H]1C[C@@H]1C)c(=O)n2CCCF [Example 322]", 7.85),
    ("COCCn1c(=O)n(C2CC2)c(=O)c2c(C)c(Cn3cc[nH]c3=O)sc21 [Example 28]", 7.72),
    ("Cc1c(Cn2nc[nH]c2=O)sc2c1c(=O)n(C1CC1)c(=O)n2CCCC#N [Example 212]", 6.62),
    ("Cc1c(Cn2nc[nH]c2=O)sc2c1c(=O)n(C1CC1)c(=O)n2C[C@@H]1CCCO1 [Example 51]", 6.49),
    ("Cc1c(Cn2nc[nH]c2=O)sc2c1c(=O)n(C1CC1)c(=O)n2CC1CCCO1 (racemic) [Example 49]", 6.96),
    ("CCCn1c(=O)n(C2CC2C)c(=O)c2c(C)c(CN3CCNC3=O)sc21 (single isomer, unassigned) [Example 229]", 8.92),
    ("COCCn1c(=O)n([C@H]2C[C@H](OC)C2)c(=O)c2c(C)c(CN3CCNC(=O)C3=O)sc21 [Example 152]", 6.47),
    ("COCCn1c(=O)n([C@H]2C[C@@H]2C)c(=O)c2c(C)c(CN3CCNC3=O)sc21 [Example 315]", 8.42),
]

###

system.name: human adenosine A2b receptor (Homo sapiens, UniProt P29275)
test.method.notes: Cellular in vitro reporter gene test for A2b receptor activity (antagonism of NECA)
condition.details: recombinant CHO-K1 cells, CRE-luciferase reporter, co-incubation with EC50 concentration of NECA, 3 hours
The entries below are paired with their reported IC50.
property.label: IC50 (µM)

# compound, units, observed.result
measured = [
    ("CO[C@H]1C[C@H](n2c(=O)c3c(C)c(CN4CCNC(=O)C4=O)sc3n(CCC(F)(F)F)c2=O)C1", "µM", 0.048),
    ("Cc1c(CN2CCNC2=O)sc2c1c(=O)n(C1COC1)c(=O)n2CCC(F)(F)F", "µM", 0.014),
    ("Cc1c(CN2CCNC(=O)C2=O)sc2c1c(=O)n(C1CCC1)c(=O)n2CCC(F)(F)F", "µM", 0.002),
    ("Cc1c(CN2CCNC(=O)C2=O)sc2c1c(=O)n(C1(C)CC1)c(=O)n2CCC(F)(F)F", "µM", 0.0093),
    ("COCCn1c(=O)n([C@H]2C[C@H](OC)C2)c(=O)c2c(C)c(Cn3nc[nH]c3=O)sc21", "µM", 0.22),
    ("CO[C@H]1C[C@@H](n2c(=O)c3c(C)c(CN4CCNC4=O)sc3n(CCC(F)(F)F)c2=O)C1", "µM", 0.023),
    ("Cc1c(Cn2nc[nH]c2=O)sc2c1c(=O)n(C1CC1)c(=O)n2CC1CCC1(F)F (single isomer, unassigned; enantiomer 2) [Example 203]", "µM", 0.16),
    ("Cc1c(CN2CCNC2=NC#N)sc2c1c(=O)n(C1CC(C)(C)C1)c(=O)n2CCC(F)(F)F", "µM", 0.014),
    ("Cc1c(CN2CCNC2=O)sc2c1c(=O)n(C1CC1)c(=O)n2CC1CC(F)(F)C1", "µM", 0.0018),
    ("Cc1c(Cn2cc[nH]c2=O)sc2c1c(=O)n(C1CC1)c(=O)n2CC1CCCO1 (racemic) [Example 46]", "µM", 0.039),
    ("Cc1c(CN2CCNC(=O)C2=O)sc2c1c(=O)n(C1CC3(CCC3)C1)c(=O)n2CCC(F)(F)F", "µM", 0.017),
    ("Cc1c(Cn2nc[nH]c2=O)sc2c1c(=O)n(C1CC(F)(F)C1)c(=O)n2CCC(F)(F)F", "µM", 0.026),
    ("COC(=O)N=C1NCCN1Cc1sc2c(c1C)c(=O)n(C1(C)CCC1)c(=O)n2CCC(F)(F)F", "µM", 0.019),
    ("Cc1c(Cn2nc[nH]c2=O)sc2c1c(=O)n(C1CC1)c(=O)n2CC1CC1(F)F (racemic) [Example 20]", "µM", 0.13),
    ("Cc1c(CN2CCNC2=O)sc2c1c(=O)n(C1(C)CC1)c(=O)n2CCOC(F)(F)F", "µM", 0.0033),
]

###

system.name: human adenosine A3 receptor (Homo sapiens, UniProt P0DMS8)
Sequence (P0DMS8 whole entry): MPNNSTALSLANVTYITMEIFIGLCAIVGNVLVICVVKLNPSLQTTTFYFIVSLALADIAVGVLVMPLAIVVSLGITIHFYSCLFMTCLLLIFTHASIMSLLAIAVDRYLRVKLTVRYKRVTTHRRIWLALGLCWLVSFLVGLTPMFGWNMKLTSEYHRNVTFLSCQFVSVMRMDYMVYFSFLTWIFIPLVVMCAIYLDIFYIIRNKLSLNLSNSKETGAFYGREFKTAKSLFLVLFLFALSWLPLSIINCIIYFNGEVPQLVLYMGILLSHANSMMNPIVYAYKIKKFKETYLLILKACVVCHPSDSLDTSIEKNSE
As shown below, each of these compounds has a reported Ki value.

# substance.smiles, system.name, op, Ki (µM)
records = [
    ("COCCn1c(=O)n(C2(C)CC2)c(=O)c2c(C)c(CN3CCNC3=O)sc21", "human adenosine A3 receptor (Homo sapiens, UniProt P0DMS8)", ">", 10),
    ("COCCn1c(=O)n([C@H]2C[C@@H]2C)c(=O)c2c(C)c(CN3CCNC3=O)sc21", "human adenosine A3 receptor (Homo sapiens, UniProt P0DMS8)", "=", 3.7),
]

###

system.name: human adenosine A2b receptor (Homo sapiens)
test.method.notes: Cellular in vitro reporter gene test for A2b receptor activity (antagonism of NECA)
condition.details: recombinant CHO-K1 cells, CRE-luciferase reporter, co-incubation with EC50 concentration of NECA, 3 hours
Simple rule here: IC50 less than 10 nM is rule met, otherwise rule not met.

# molecule, label.class
rows = [
    ("Cc1c(CN2CCNC2=O)sc2c1c(=O)n(C1CC1C)c(=O)n2CCF (single isomer, unassigned) [Example 233]", "rule not met"),
    ("Cc1c(CN2CCNC2=O)sc2c1c(=O)n(C1CC1)c(=O)n2CC1CCCO1 (racemic)", "rule not met"),
    ("Cc1c(CN2CCNC2=O)sc2c1c(=O)n(C1CC1C)c(=O)n2CCC(F)(F)F (single isomer, unassigned) [Example 241]", "rule met"),
    ("Cc1c(Cn2nc[nH]c2=O)sc2c1c(=O)n(C1(C)CC1)c(=O)n2CC1CC1(F)F (racemic) [Example 66]", "rule not met"),
    ("Cc1c(Cn2nc[nH]c2=O)sc2c1c(=O)n(C1(C)CC1)c(=O)n2C[C@H]1CCCO1", "rule not met"),
    ("Cc1c(CN2CCNC2=NC#N)sc2c1c(=O)n(C1CC(F)(F)C1)c(=O)n2CCC(F)(F)F", "rule not met"),
    ("Cc1c(CN2CCNC2=O)sc2c1c(=O)n(C1CC1C)c(=O)n2CCC(F)(F)F (racemic) [Example 93]", "rule met"),
]
